Data origin: ChEMBL document CHEMBL1201862

Exercise: state measured GI50 for each of the compounds provided.
Test system: Hs-578T
Test Description: NCI tumour cell line growth inhibition, 48 h
Activity calls are given as the source filed them. Cut-off read from the data, not from the text of the source: active = GI50 up to about 1.1 µM and inactive = higher.

*Q* Query: GI50; subject: CN1CC2CN(Cc3ccccc3)CCN2c2cccnc21 (centres undefined)
*A* 40.3 µM (inactive)

*Q* Which GI50 value is on record for [N-]=[N+]=NC1CC(n2ccc(N)nc2=O)OC1COP(=O)(O)OP(=O)(O)OP(=O)(O)O (centres undefined) ?
*A* > 100 µM (inactive)

*Q* For the compound shown here, NCCNCC(O)CO (centres undefined) , give the reported GI50.
*A* > 100 µM (inactive)

*Q* So what's the measured GI50 for this one? CC1=NN(c2cccc(Cl)c2)C2(C1=Cc1ccc(N(C)C)cc1)C(Cl)C(=O)N2c1nc2ccccc2s1 (centres undefined)
*A* 23.5 µM (inactive)

*Q* Quick one: GI50 for CCOC(=O)C1C(=O)C=C(c2cc(C)ccc2O)CC1c1cccc(Br)c1 (centres undefined) ?
*A* 14.8 µM (inactive)

*Q* Using the record for c1ccc(C(=NNc2nc3ccccc3[nH]2)c2ccccn2)nc1 , report its GI50.
*A* 7.53 µM (inactive)

*Q* Look up GI50 for this compound: COC(=O)c1c(C)cccc1C1CN=NC12Cc1ccc(C)c(C)c1C2=O (centres undefined)
*A* 37.7 µM (inactive)

*Q* Look at this compound and give its reported GI50. Nc1nc(Cl)cc(NCC2(CO)CCC2)n1
*A* > 100 µM (inactive)

*Q* What does the record list as GI50 for C=C1CC[C@@]2(OC1)OC1C[C@H]3[C@@H]4CC=C5C[C@@H](O)CC(OC6OCC(OC(=O)[C@@H](O)[C@@H](C)CC)C(OC(C)=O)C6OC6OC(C)C(O)C(O)C6O)[C@]5(C)[C@H]4CC[C@]3(C)C1[C@@H]2C (some centres undefined) ?
*A* 3.4 µM (inactive)

*Q* Fill in the blank: the reported GI50 of c1cc(-c2ccc(-c3ccc(-c4ccc(-c5ccncc5)o4)cc3)o2)ccn1 is ____.
*A* 64.1 µM (inactive)

*Q* Could you tell me which GI50 is on file for CCCN1C(=O)/C(=C\c2ccc(OC)c(OC)c2)S/C1=N\c1ccccc1 ?
*A* 44.4 µM (inactive)

*Q* Please give the measured GI50 for this compound: O=C1CC(Cl)c2c1csc2Br (centres undefined)
*A* 21.6 µM (inactive)

*Q* Would you mind telling me what GI50 value was observed for NC(=S)NS(=O)(=O)c1ccc(Cl)cc1 ?
*A* > 100 µM (inactive)

*Q* Tell me the measured GI50 of C/C(=N\Nc1ccc([N+](=O)[O-])cc1[N+](=O)[O-])c1ccc2ccccc2n1 , please.
*A* 25.3 µM (inactive)

*Q* Using the record for OCC1OC(O[C@H]2CN3[C@H](O)[C@@H](O)[C@H](O)[C@H]3C2O)C(O)C(O)C1O (some centres undefined) , report its GI50.
*A* > 100 µM (inactive)

*Q* May I ask what GI50 has been recorded for C/N=c1/oc2ccccc2cc1C(N)=O ?
*A* 16.9 µM (inactive)

*Q* # get_value(readout='GI50', item= COC(=O)CNC(=O)c1cc(C)cc2c1Oc1c(cc(C)cc1C(=O)NCC(=O)OC)S2 )
*A* 65.6 µM (inactive)

*Q* Which GI50 is reported for this compound? CS(=O)(=O)C(=Cc1ccccc1Cl)S(C)(=O)=O
*A* > 91.2 µM (inactive)

*Q* If you can, please state the reported GI50 value of COC(=O)c1cc2c(cc1CC1Cc3cc4c(cc3C1)CCC4)CCC2 .
*A* 66.8 µM (inactive)

*Q* Which GI50 is listed for S=CN1CCCCC1 ?
*A* > 100 µM (inactive)

*Q* Item under review: CCOC(=O)NC(N(C)C(C(C)C)P(=O)(OCC)OCC)(C(F)(F)F)C(F)(F)F (centres undefined) . Reported GI50?
*A* > 100 µM (inactive)

*Q* For the compound CNc1nc2c(C)ccc3nc(N(C)C)[nH]c3c-2n1 , what GI50 is on record?
*A* 97.9 µM (inactive)

*Q* Request the reported GI50 associated with O=C1CC(c2cccc(F)c2)Nc2cc3c(cc21)OCO3 (centres undefined)
*A* < 0.01 µM (active)

*Q* Requested field: GI50. Item: CO/N=C(\C(=O)N(C)n1cnnc1)c1csc(NC(c2ccccc2)(c2ccccc2)c2ccccc2)n1
*A* > 10 µM (inactive)

*Q* Given the compound CC(=O)O[C@H]1C(=O)[C@@]2(C)[C@H]([C@H](OC(=O)c3cccc(C(F)(F)F)c3)[C@]3(O)C[C@H](OC(=O)[C@H](O)[C@@H](NC(=O)c4ccccc4)c4ccccc4)C(C)=C1C3(C)C)[C@]1(OC(C)=O)CO[C@@H]1C[C@@H]2O , what is its reported GI50?
*A* < 0.0025 µM (active)

*Q* Fill in the blank: the reported GI50 of C=C1C(=O)O[C@@H]2C[C@]3(C)CC[C@]4(C)[C@H](CC[C@@H]5[C@@]6(C)CCC(=O)C(C)(C)[C@@H]6CC[C@]54C)[C@H]3[C@H]12 [OCHRACEOLIDE A] is ____.
*A* 31.6 µM (inactive)

*Q* Report GI50 for N#C/C(=C\NC(=S)Nc1ccc(S(=O)(=O)Nc2ccccn2)cc1)C(N)=O please.
*A* > 100 µM (inactive)

*Q* Which GI50 value is on record for Cc1ccc(C)n1-n1c(-c2ccccc2)n[nH]c1=O ?
*A* > 100 µM (inactive)

*Q* Entry under review: Cc1nn(C(=O)c2ccc(Cl)cc2)c2c1C(c1ccco1)SC(=N)N2 (centres undefined) . Reported GI50?
*A* > 10 µM (inactive)

*Q* Bench note: what GI50 did COC(=O)/C=C/c1ccc2c(c1)[C@H](C(=O)OC)[C@@H](c1ccc(O)cc1)O2 show?
*A* 31.2 µM (inactive)

*Q* I would be grateful if you could share the reported GI50 for Cn1c(-c2cccs2)cc(-c2cccs2)c1-c1ccco1 .
*A* 26.5 µM (inactive)

*Q* I am curious: what GI50 value has been reported for NC1CCCCC1NCCNC1CCCCC1N (centres undefined) ?
*A* 44.7 µM (inactive)

*Q* So what does the record say about GI50 for CCC(C)C(NC(=O)c1cccc2c(=O)c3ccccc3[nH]c12)C(=O)O (centres undefined) ?
*A* > 100 µM (inactive)

*Q* Any idea what GI50 was measured for CCOC(=O)c1c(SC(=O)/C=C/c2ccccc2)n(-c2ccccc2)c(=S)n(-c2ccccc2)c1=O ?
*A* > 100 µM (inactive)

*Q* Value lookup for GI50; key = CC1C(c2ccc(F)cc2)c2cc3c(cc2OC1N1CCCC1)OCO3 (centres undefined)
*A* 18 µM (inactive)

*Q* Request the reported GI50 associated with CN(C(=O)c1ccncc1)c1ccccc1
*A* > 100 µM (inactive)

*Q* Query: GI50; subject: COc1cc2c(c(OC)c1OC)-c1c(cc3c(c1OC)OCO3)CC(C)C(C)(O)C2OC(=O)c1ccccc1 (centres undefined)
*A* 32.5 µM (inactive)

*Q* Which value of GI50 has been reported for Cc1ccc(Nc2cn(COCc3ccccc3)c(=O)[nH]c2=O)cc1 in the records?
*A* 24.9 µM (inactive)

*Q* Give the measured GI50 of COc1ccc(-c2c3c(n(C4OC(CO)C(O)C(O)C4O)c(=S)c2C#N)CC(C)(C)CC3=O)cc1 (centres undefined) .
*A* > 100 µM (inactive)
